Data provenance is patent US9683238.

# target-under-test: VEGF165 (vascular endothelial growth factor 165) (Homo sapiens, UniProt P15692-4 P15692-4:27-191)
# Sequence (P15692 other isoform, or with tags, fused parts or gaps): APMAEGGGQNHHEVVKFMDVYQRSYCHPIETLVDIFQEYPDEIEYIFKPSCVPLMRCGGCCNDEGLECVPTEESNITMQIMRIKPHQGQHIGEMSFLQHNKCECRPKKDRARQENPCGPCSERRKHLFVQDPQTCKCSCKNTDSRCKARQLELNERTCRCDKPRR
# test-summary: SPR; VEGF immobilized on CM5; TBS (10 mM Tris-HCl, 100 mM NaCl, 5 mM KCl, pH 7.4), 20 C
# condition-description: tags: R&D Systems, expressed in Sf21 insect cells; chain copies: 2 (inferred, homodimer)
pKd: −log10 of the molar value.
measured-quantity: pKd

In [3]: df
Out[3]:
                                     binder  observed_result
0  3R02 bivalent (ssDNA) DNA: TGTGGGGGTGGACTGGGTGGGTACCTTTTTTTTTTTGTGGGGGTGGACTGGGTGGGTACC            10.52
